Experiment: chemical genetic growth profiling, strain panel (AID 1159580);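 note: tested at 20 µM; growth read once vehicle control cultures reached saturation at 30 °C; 1 = growth at the plate median or of vehicle wells; lower values mean less growth of the strain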
Details: S. cerevisiae deletion strains, growth OD, locus YOR106W, strain vam3, active compounds read low
About 2,000 (36%) of roughly 5,500 compounds were called active. About 18% were inconclusive and are not listed. This is one part of the list.
# if measured normalized growth < 1: Fulfilled  # else: Not fulfilled

>>> category("C[C@@H]1CC[C@@]2(OC1)OC1C(O)C3C4CC[C@H]5C[C@H](O[C@@H]6O[C@H](CO)[C@H](O[C@@H]7O[C@H](CO)[C@@H](O)[C@H](O[C@@H]8OC[C@@H](O)[C@H](O)[C@H]8O)[C@H]7O[C@@H]7O[C@H](CO)[C@H](O)[C@H](O[C@@H]8O[C@H](CO)[C@@H](O)[C@H](O)[C@H]8O)[C@H]7O)[C@H](O)[C@H]6O)[C@H](O)C[C@]5(C)C4CC[C@]3(C)C1[C@@H]2C (stereo partly specified)")
"Fulfilled"
>>> category("CN(C)CCC=C1c2ccccc2CCc2ccccc21")
"Fulfilled"
>>> category("CC(=O)Oc1c(-c2ccccc2)oc2c(CC=C(C)C)c3c(c(OC(C)=O)c2c1=O)C=CC(C)(C)O3")
"Not fulfilled"

Does "CC1=NCCc2c1[nH]c1cc(O)ccc21" have normalized growth strictly under 1? Fulfilled

Consider CC(=O)OCC(=O)[C@H]1CCC2C3CC=C4C[C@@H](O)CC[C@]4(C)C3CC[C@@]21C (stereo partly specified) . Does its normalized growth lie strictly below 1? Fulfilled

Bench note: check whether "CN(C)CCC=C1c2ccccc2C=Cc2ccccc21" shows normalized growth below 1 Fulfilled

---

Test: chemical genetic growth profiling, strain panel (AID 1159580)
Conditions: S. cerevisiae deletion strains, growth OD, locus YAL013W, strain DEP1, active compounds read low
The whole screen tested about 5,500 compounds, of which about 2,000 (36%) were called active. About 18% were inconclusive and are not listed. The list shows a part of the results.
Consider the following compounds; for each one, report its normalized growth.
Give bare numbers.

Previously resolved entries follow.
>>> numeric_result("Clc1ccc(Cl)cc1")
1.01
>>> numeric_result("Clc1ccc(-c2csc(-c3ccno3)n2)s1")
0.942
>>> numeric_result("C[C@@H]1CC[C@@]2(OC1)OC1C(O)C3C4CC[C@H]5C[C@H](O[C@@H]6O[C@H](CO)[C@H](O[C@@H]7O[C@H](CO)[C@@H](O)[C@H](O[C@@H]8OC[C@@H](O)[C@H](O)[C@H]8O)[C@H]7O[C@@H]7O[C@H](CO)[C@H](O)[C@H](O[C@@H]8O[C@H](CO)[C@@H](O)[C@H](O)[C@H]8O)[C@H]7O)[C@H](O)[C@H]6O)[C@H](O)C[C@]5(C)C4CC[C@]3(C)C1[C@@H]2C (stereo not given in full)")
0.0526
>>> numeric_result("ClC(Cl)=C(c1ccc(Cl)cc1)c1ccc(Cl)cc1")
0.976

Consider the additional compound presented here.
"CC(=O)Nc1cccc(O)c1" yielded normalized growth of 1

---

Assay: chemical genetic growth profiling, strain panel (AID 1159580);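 note: tested at 20 µM; growth read once vehicle control cultures reached saturation at 30 °C; 1 = growth at the plate median or of vehicle wells; lower values mean less growth of the strain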
Conditions: S. cerevisiae deletion strains, growth OD, locus YOR270C, strain vph1, active compounds read low
Screen size: about 5,500 compounds; about 2,000 (36%) were called active. Roughly 18% stayed inconclusive and do not appear here. The list shows a part of the results.
Give measured normalized growth for each item. Keep answers brief.
Answers are plain numbers.

Example compounds with recorded normalized growth:
>>> numeric_result("Nc1ccc(C(=O)Oc2ccccc2)c(O)c1")
0.732
>>> numeric_result("CC1(C)O[C@@H]2CC3C4C[C@H](F)C5=CC(=O)C=C[C@]5(C)[C@@]4(F)[C@@H](O)C[C@]3(C)[C@]2(C(=O)CO)O1 (some centres undefined)")
1.04
>>> numeric_result("C=C1C(N)CC2CC1C2(C)C (centres undefined)")
1.03

// for each compound below, give its normalized growth
1. N[C@@H]1CONC1=O
2. CC(=O)O[C@H]1C[C@@]2(C)[C@H](c3ccoc3)OC(=O)[C@H]3O[C@]32[C@@]2(C)C1[C@]1(C)C(C[C@H]2OC(C)=O)C(C)(C)[C@H](OC(C)=O)C[C@@H]1OC(C)=O (some centres undefined)
3. COc1cc2c3cc1Oc1cc(ccc1O)C[C@@H]1c4c(cc(OC)c(O)c4Oc4ccc(cc4)C[C@@H]3N(C)CC2)CC[N+]1(C)C
4. CC(C)=CCc1c2c(c(O)c3c(=O)c(O)c(-c4ccccc4)oc13)C=CC(C)(C)O2
5. CC(=O)Nc1ccc(O)cc1
6. C[C@@H]1CC[C@@]2(OC1)OC1C(O)C3C4CC[C@H]5C[C@H](O[C@@H]6O[C@H](CO)[C@H](O[C@@H]7O[C@H](CO)[C@@H](O)[C@H](O[C@@H]8OC[C@@H](O)[C@H](O)[C@H]8O)[C@H]7O[C@@H]7O[C@H](CO)[C@H](O)[C@H](O[C@@H]8O[C@H](CO)[C@@H](O)[C@H](O)[C@H]8O)[C@H]7O)[C@H](O)[C@H]6O)[C@H](O)C[C@]5(C)C4CC[C@]3(C)C1[C@@H]2C (some centres undefined)
7. CC(=O)O[C@@H]1CC2C(C)(C)[C@H](O)C[C@H](O)[C@]2(C)C2CC[C@@]3(C)[C@H](c4ccoc4)OC(=O)[C@H]4O[C@]43[C@@]21C (some centres undefined)

1. 1.05
2. 0.879
3. 0.985
4. 0.394
5. 1.02
6. 0.99
7. 0.828

Report normalized growth for each item below.
1. CC(C)(C)C(=O)C(Oc1ccc(Cl)cc1)n1cncn1 (centres undefined)
2. CC(=O)Nc1cccc(O)c1
3. CC(=O)O[C@H]1C[C@H](O[C@H]2[C@@H](O)C[C@H](O[C@H]3[C@@H](O)C[C@H](O[C@H]4CC[C@@]5(C)C(CCC6C5C[C@@H](O)[C@]5(C)[C@@H](C7=CC(=O)OC7)CC[C@]65O)C4)O[C@@H]3C)O[C@@H]2C)O[C@H](C)[C@H]1O[C@@H]1O[C@H](CO)[C@@H](O)[C@H](O)[C@H]1O (some centres undefined)
4. CC(=O)Oc1c(-c2ccccc2)oc2c(CC=C(C)C)c3c(c(OC(C)=O)c2c1=O)C=CC(C)(C)O3

1: 0.123; 2: 1.05; 3: 0.946; 4: 0.972

---

Experiment: chemical genetic growth profiling, strain panel (AID 1159580);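 note: tested at 20 µM; growth read once vehicle control cultures reached saturation at 30 °C; 1 = growth at the plate median or of vehicle wells; lower values mean less growth of the strain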
Settings: S. cerevisiae deletion strains, growth OD, locus YPL031C, strain PHO85, active compounds read low
In all, about 5,500 compounds went through this assay and about 2,000 (36%) were called active. Another 18% or so got no clear call; they are omitted. The list shows a part of the results.
Property: normalized growth
One number for each entry.

>>> numeric_result("C/C(=N/Nc1nc(C(C)(C)C)cs1)c1ccc(Cl)c(Cl)c1")
0.903

// each compound listed below needs its normalized growth
1. CC(C)(C)c1cc2nc(C(F)(F)F)cc(NNC(=O)c3ccc(Cl)cc3)n2n1
2. Cc1csc2ncnc(N/N=C\c3ccccc3Cl)c12
3. CC(C)(C)c1csc(NC(=O)Nc2ccc(Cl)cc2)n1
4. N/C(CSc1ccc(Cl)cc1)=N/OC(=O)c1ccc(C(F)(F)F)cc1
5. Cc1nc(-c2ccc(C(F)(F)F)cn2)[nH]c(=O)c1Cl
6. N=c1ccc2nc3c(Cl)c4c(c(Cl)c3oc-2c1S(=O)(=O)O)Nc1ccc(N)c(S(=O)(=O)O)c1O4

1. 1.03
2. 0.959
3. 0.43
4. 0.807
5. 0.787
6. 1.01

---

Assay: chemical genetic growth profiling, strain panel (AID 1159580);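 note: tested at 20 µM; growth read once vehicle control cultures reached saturation at 30 °C; 1 = growth at the plate median or of vehicle wells; lower values mean less growth of the strain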
Settings: S. cerevisiae deletion strains, growth OD, locus YPR167C, strain met16, active compounds read low
Out of some 5,500 compounds screened, about 2,000 (36%) were called active. Inconclusive results (about 18%) are left out. Some of the results follow.
Exercise: state measured normalized growth for each of the compounds provided.

As a guide, the following entries are already answered.
>>> result("O=C1c2c(O)ccc(O)c2C(=O)c2c(NCCNCCO)ccc(NCCNCCO)c21")
"0.993 (inactive)"
>>> result("CC(=O)OC1CC2C(C)(C)CCCC2(C)C2CCC3(C)C(c4ccoc4)OC(=O)C4OC43C12C (stereo not drawn)")
"1.01 (inactive)"
>>> result("O=c1oc2ccccc2c(O)c1Cc1c(O)c2ccccc2oc1=O")
"0.958 (inactive)"
>>> result("CC(C)(Oc1ccc(Cl)cc1)C(=O)O")
"0.966 (inactive)"
>>> result("COC(=O)C[C@H]1C(C)(C)C(=O)[C@@H]2CC3=C4CC(OC)O[C@@H](c5ccoc5)[C@]4(C)CCC3[C@@]1(C)C2=O (stereo partly drawn)")
"1 (inactive)"

Parameters: items (list). Returns: normalized growth for each item.
1. NC(=O)CC[C@@H](N)C(=O)O
2. COc1ccc(-c2cc(=O)c3ccccc3o2)cc1OC
3. COc1ccc(-c2coc3cc(OC)cc(O)c3c2=O)cc1
4. COc1cc([C@@H]2c3cc4c(cc3C(O[C@@H]3O[C@@H]5CO[C@@H](c6cccs6)OC5[C@H](O)[C@H]3O)C3COC(=O)[C@@H]32)OCO4)cc(OC)c1O (stereo partly drawn)
5. CC(=O)[C@H]1CCC2C3CC=C4C[C@@H](O)CC[C@]4(C)C3CC[C@@]21C (stereo partly drawn)
6. CN1CCN2c3ccccc3Cc3ccccc3C2C1 (stereo not drawn)
7. CC(=O)O[C@@H]1CC2C(C)(C)C(=O)CC[C@]2(C)C2CC[C@@]3(C)[C@H](c4ccoc4)OC(=O)C4OC43[C@@]21C (stereo partly drawn)

["1 (inactive)", "1.02 (inactive)", "0.97 (inactive)", "1.02 (inactive)", "1.01 (inactive)", "0.987 (inactive)", "1.01 (inactive)"]

Count: 4. Required value per item: normalized growth.
1. CC1NC(=O)NC1=O (stereo not drawn)
2. O=c1c(-c2cc(O)c(O)c(O)c2)coc2cc(O)c(O)c(O)c12
3. COc1cc(O)c2c(=O)c(-c3ccc(O)cc3)coc2c1
4. O=c1c2ccccc2oc2ccc(O)cc12

1: 1.01 (inactive); 2: 1.01 (inactive); 3: 0.942 (inactive); 4: 0.934 (inactive)

// each listed compound needs a value for normalized growth
1. COc1ccc(-c2cc(=O)c3c(OC)cccc3o2)cc1
2. O=c1c(-c2ccc(O)cc2)coc2cc(O)cc(O)c12
3. COc1ccc(-c2cc(=O)c3ccccc3o2)cc1
4. C#CCOS(=O)OC1CCCCC1Oc1ccc(C(C)(C)C)cc1 (stereo not drawn)

1: 1.02 (inactive); 2: 1.03 (inactive); 3: 0.727 (active); 4: 0.994 (inactive)
